Where these numbers come from: paper PMC6635573

Molecular target: human A3AR (Homo sapiens, UniProt P0DMS8)
Sequence (P0DMS8 1-318): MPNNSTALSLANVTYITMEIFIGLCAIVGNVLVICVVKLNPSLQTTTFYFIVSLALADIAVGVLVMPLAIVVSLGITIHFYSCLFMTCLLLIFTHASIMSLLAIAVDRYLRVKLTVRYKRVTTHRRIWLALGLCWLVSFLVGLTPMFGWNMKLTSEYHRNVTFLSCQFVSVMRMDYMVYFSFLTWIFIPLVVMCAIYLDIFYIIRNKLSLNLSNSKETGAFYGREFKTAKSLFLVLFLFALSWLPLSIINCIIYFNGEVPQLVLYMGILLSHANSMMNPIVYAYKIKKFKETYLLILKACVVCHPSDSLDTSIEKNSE
Test: NanoBRET equilibrium competition binding with AV039 as probe in Nluc-A3AR HEK293 cells
Each entry below lists one item and its recorded pKi value.
pKi is a log-scale quantity: -log10 of the concentration expressed in molar.

COc1cccc(Cn2c(=O)n(CC3CC3)c(=O)c3c2nc2cc(OC)ccn23)c1 ... 7.93

# ---- query compound ----
Consider COc1ccn2c(c1)nc1c2c(=O)[nH]c(=O)n1Cc1ccccc1 . Its measured pKi is 7.05

---

Each entry below lists one item and its recorded pKi value.
Molecular target: human A3AR (Homo sapiens)
Sequence (P0DMS8 1-318): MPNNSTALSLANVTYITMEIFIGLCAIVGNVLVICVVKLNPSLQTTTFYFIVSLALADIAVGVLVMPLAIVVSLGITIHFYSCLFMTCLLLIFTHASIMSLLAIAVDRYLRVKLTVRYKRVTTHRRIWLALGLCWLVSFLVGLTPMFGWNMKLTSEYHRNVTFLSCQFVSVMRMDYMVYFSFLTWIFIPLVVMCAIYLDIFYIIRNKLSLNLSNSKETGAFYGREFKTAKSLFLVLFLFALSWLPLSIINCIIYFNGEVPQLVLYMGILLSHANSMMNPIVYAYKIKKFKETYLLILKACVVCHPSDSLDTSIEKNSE
Test: NanoBRET equilibrium competition binding with XAC-S-ser-S-tyr-X-BY630 as probe in Nluc-A3AR HEK293 cells
Design: expressed in transfected cells
pKi is a log-scale quantity: -log10 of the concentration expressed in molar.

COc1ccn2c(c1)nc1c2c(=O)[nH]c(=O)n1Cc1ccccc1 ... 6.08

# ---- query compound ----
Consider COc1cccc(Cn2c(=O)n(CC3CC3)c(=O)c3c2nc2cc(OC)ccn23)c1 . Its measured pKi is 7.00

---

Biological target: human A3AR (Homo sapiens)
Experiment: [3H]PSB-11 radioligand equilibrium displacement in Nluc-A3AR HEK293 membranes
Format: binding
Set-up: expressed in transfected cells
Conditions: read-out: Equilibrium competition pKi (converted)
OBSERVATION TYPE: Ki (nM)
Report as a plain number; the unit nM is understood.

Consider COc1cccc(Cn2c(=O)n(CC3CC3)c(=O)c3c2nc2cc(OC)ccn23)c1 . Its measured Ki is 1.02

Consider COc1ccc(-n2nc3c(NC(=O)CCC(=O)NCCOCCOCCNC(=O)CCCCCNC(=O)COc4ccc(/C=C/C5=[N+]6C(=Cc7ccc(-c8cccs8)n7[B-]6(F)F)C=C5)cc4)nc4ccccc4n3c2=O)cc1 . Its measured Ki is 22.4

Consider CCCn1c(=O)c2[nH]c(-c3ccc(OCC(=O)NCCNC(=O)[C@H](CO)NC(=O)[C@H](Cc4ccc(O)cc4)NC(=O)CCCCCNC(=O)COc4ccc(/C=C/C5=[N+]6C(=Cc7ccc(-c8cccs8)n7[B-]6(F)F)C=C5)cc4)cc3)nc2n(CCC)c1=O . Its measured Ki is 61.7

Consider COc1ccn2c(c1)nc1c2c(=O)[nH]c(=O)n1Cc1ccccc1 . Its measured Ki is 44.7
